Test system: HEK-293T
PROTOCOL_NOTES: Multiplex assay against HEK293T
Format: toxicity, cell-based
TEST_SETTINGS: human, 48 h, 10 µM, compound concentration 10 uM, replicate 1
ASSAY_ENDPOINT: Population Mitotic Cells (%)
Please give a number only; it is taken to be in %.

Cc1ccc(/C(=C\CN2CCCC2)c2ccccn2)cc1; 56

Requested read-out: Population Mitotic Cells (%). Entry: O=C(O)c1cc2ccccc2c(Cc2c(O)c(C(=O)O)cc3ccccc23)c1O
75

Requested read-out: Population Mitotic Cells (%). Entry: N#Cc1c(N)nc(SCc2csc(-c3ccc(Cl)cc3)n2)c(C#N)c1-c1ccc(OCCO)cc1
33

Requested read-out: Population Mitotic Cells (%). Entry: CNC[C@H](O)c1ccc(O)c(O)c1 [EPINEPHRINE]
66

Requested read-out: Population Mitotic Cells (%). Entry: COc1ccc2c(c1)C(C(=O)N(Cc1ccc(N(C)C)cc1)c1ccc(C(C)C)cc1)CCC2.Cl (centres undefined)
40

Requested read-out: Population Mitotic Cells (%). Entry: CC[C@H]1OC(=O)[C@H](C)[C@@H](O[C@H]2C[C@@](C)(OC)[C@@H](O)[C@H](C)O2)[C@H](C)[C@@H](O[C@@H]2O[C@H](C)C[C@H](N(C)C)[C@H]2O)[C@@]2(C)CC(C)=C(O2)[C@H](C)[C@@H](O)[C@]1(C)O
50

Requested read-out: Population Mitotic Cells (%). Entry: c1cc(OCCCN2CCCCC2)ccc1CN1CCCCC1
65

Requested read-out: Population Mitotic Cells (%). Entry: Cc1ccc(C(C)(O)c2nc3ccccc3s2)c(C)c1 (centres undefined)
66

Requested read-out: Population Mitotic Cells (%). Entry: CSc1ccccc1N1CCN(CCCCCC(=O)NC2CCCc3ccccc32)CC1.Cl (centres undefined)
23

====

Tested on: U2OS
PROTOCOL_NOTES: Multiplex assay against U2OS
Assay type: toxicity, cell-based
TEST_SETTINGS: human, 48 h, 10 µM, compound concentration 10 uM, replicate 2
ASSAY_ENDPOINT: Population Hoechst High Intensity Objects (%)
Please give a number only; it is taken to be in %.

Check out these entries, answers already filled in.
Cl.Clc1ccc2nsnc2c1NC1=NCCN1 [TIZANIDINE HYDROCHLORIDE]; 4
O=C(NCCO)c1cccc(-c2cc(Nc3ccc(OC(F)(F)F)cc3)ncn2)c1; 2
CCCn1c(=O)c2[nH]c(C3CCCC3)nc2n(CCC)c1=O; 3
CCNC1(C(N)=O)CCN(c2ncnc3c2nc(-c2ccccc2Cl)n3-c2ccc(Cl)cc2)CC1 [OTENABANT]; 10
O=S(=O)(c1ccccc1)c1cnc2c(N3CCNCC3)cccc2c1 [INTEPIRDINE]; 2

Requested read-out: Population Hoechst High Intensity Objects (%). Entry: COc1cc(C(=O)N(CCCc2ccccc2)Cc2ccc(CC(=O)O)cc2)cc(OC)c1C
3

Requested read-out: Population Hoechst High Intensity Objects (%). Entry: CNC[C@H](O)c1ccc(O)c(O)c1 [EPINEPHRINE]
17

Requested read-out: Population Hoechst High Intensity Objects (%). Entry: COc1cc(NC(=O)CCN2CCC(OC(=O)Nc3ccccc3-c3ccccc3)CC2)c(Cl)cc1CNC[C@H](O)c1ccc(O)c2[nH]c(=O)ccc12 [BATEFENTEROL]
10

Requested read-out: Population Hoechst High Intensity Objects (%). Entry: c1cc(OCCCN2CCCCC2)ccc1CN1CCCCC1 [JNJ-5207852]
1
